pIC50: −log10 of the molar value.
Literature roundup of Aurora kinase A (Homo sapiens, UniProt O14965) data, read-out pIC50.

CCN(CC)C1CCN(c2ccc(-c3nc4c(C(=O)Nc5ccc(C)nc5)ccnc4[nH]3)cc2)C1 (centres unmarked); 6.60
Cc1cc(Nc2nn(C(C)C)c(=O)c3cc(OC(F)F)ccc23)n[nH]1; 7.00 to 9.00

Can you look up pIC50 on Aurora kinase A (Homo sapiens, UniProt O14965) for `COc1cc2c(Oc3ccc(NC(=O)Nc4ccc(C(F)(F)F)cc4)cc3F)ccnc2cc1OCC[C@H](N)C(=O)O` ?
> 5.70

Another compound to check: `COc1cc(-c2cnc3[nH]c(=O)n(Cc4cccc(F)c4)c3n2)cc(OC)c1OC`
> 6.30

Another compound to check: `C=CC(=O)Nc1ccc(NS(=O)(=O)c2cccc(Nc3ncc4c(n3)N(C)c3ccc(C)cc3C(=O)N4C)c2)cc1`
6.57
